B1: ZNF207 (parent)
chain: YQGGPPRPPMGMRPPVMSQGGRY

- Variants of: B1
- protocol_details: protein stability index of a GFP-peptide fusion (GPS, HEK-293T) (PSI 1-6); higher = more stable;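 also: lentivirally expressed fusions sorted by FACS into six bins by GFP to DsRed ratio, PSI derived from sequencing read proportions per bin multiplied by bin number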
- reported_conditions: c terminus: native
Class TRUE: protein stability index at least 2. Class FALSE: protein stability index below 2.

R7C; FALSE

Please indicate if the recorded protein stability index for M10N meets or exceeds 2.
FALSE

In plain terms: is recorded protein stability index at least 2 for Y23S ?
TRUE

Please check the record P6E and state if its protein stability index is at or above 2.
TRUE

Identify whether the reported protein stability index of the following variant is 2 or greater: G4D
TRUE

Assess whether reported protein stability index for M10V sits at 2 or higher.
TRUE

Is it the case that G20E has protein stability index reaching or exceeding 2?
TRUE

Reported protein stability index at or above 2? P14C
TRUE

Cited source for all entries: the supplement of paper PMC10567573
